The reported measurements were obtained from ChEMBL document CHEMBL1269000.

Listed below: IC50 values for each entry.
Molecular target: Peptidyl-prolyl cis-trans isomerase B (Homo sapiens)
Sequence (P23284 whole entry): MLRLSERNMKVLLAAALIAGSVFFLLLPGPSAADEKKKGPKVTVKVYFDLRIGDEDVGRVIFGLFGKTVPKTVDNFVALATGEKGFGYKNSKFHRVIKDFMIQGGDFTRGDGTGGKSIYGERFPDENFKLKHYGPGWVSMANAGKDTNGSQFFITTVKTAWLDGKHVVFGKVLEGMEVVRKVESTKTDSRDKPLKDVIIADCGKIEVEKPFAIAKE
Test: Binding affinity to cyclophilin B by ELISA
REPORTED ENDPOINT: IC50 (nM)

molecular_string=C/C=C/C[C@@H](C)[C@@H](O)[C@H]1C(=O)N[C@@H](CC)C(=O)N(C)[C@H](SCCN(C)C)C(=O)N(C)[C@@H](CC(C)(C)O)C(=O)N[C@@H](C(C)C)C(=O)N(C)[C@@H](CC(C)C)C(=O)N[C@@H](C)C(=O)N[C@H](C)C(=O)N(C)[C@@H](CC(C)C)C(=O)N(C)[C@@H](CC(C)C)C(=O)N(C)[C@@H](C(C)C)C(=O)N1C obs_value=10.3
molecular_string=C/C=C/C[C@@H](C)[C@@H](O)[C@H]1C(=O)N[C@@H](CC)C(=O)N(C)CC(=O)N(C)[C@@H](CC(C)C)C(=O)N[C@@H](C(C)C)C(=O)N(C)[C@@H](CC(C)C)C(=O)N[C@@H](C)C(=O)N[C@H](CCN(C)C)C(=O)N(C)[C@@H](CC(C)C)C(=O)N(C)[C@@H](CC(C)C)C(=O)N(C)[C@@H](C(C)C)C(=O)N1C obs_value=59.5

----------
Test system: Hepatitis C virus
Assay: Antiviral activity against HCV after 72 hrs by stable luciferase reporter gene assay
Assay type: functional, organism-based, Hepacivirus hominis
Just a reminder that ties go to false (0): only EC90 strictly below 400 nM counts as true (1).

molecular_string=C/C=C/C[C@@H](C)[C@@H](O)[C@H]1C(=O)N[C@@H](CC)C(=O)N(C)CC(=O)N(C)[C@@H](CC(C)C)C(=O)N[C@@H](C(C)C)C(=O)N(C)[C@@H](CC(C)C)C(=O)N[C@@H](C)C(=O)N[C@H](CCCN(CC)CC)C(=O)N(C)[C@@H](CC(C)C)C(=O)N(C)[C@@H](CC(C)C)C(=O)N(C)[C@@H](C(C)C)C(=O)N1C answer_label="true (1)"
molecular_string=C/C=C/C[C@@H](C)[C@@H](O)[C@H]1C(=O)N[C@@H](CC)C(=O)N(C)[C@H](SCCN(C)C)C(=O)N(C)[C@@H](CC(C)(C)O)C(=O)N[C@@H](C(C)C)C(=O)N(C)[C@@H](CC(C)C)C(=O)N[C@@H](C)C(=O)N[C@H](C)C(=O)N(C)[C@@H](CC(C)C)C(=O)N(C)[C@@H](CC(C)C)C(=O)N(C)[C@@H](C(C)C)C(=O)N1C answer_label="true (1)"
molecular_string=C/C=C/C[C@@H](C)[C@@H](O)[C@H]1C(=O)N[C@@H](CC)C(=O)N(C)CC(=O)N(C)[C@@H](CC(C)C)C(=O)N[C@@H](C(C)C)C(=O)N(C)[C@@H](CC(C)C)C(=O)N[C@@H](C)C(=O)N[C@H](CCCN(C)C)C(=O)N(C)[C@@H](CC(C)C)C(=O)N(C)[C@@H](CC(C)C)C(=O)N(C)[C@@H](C(C)C)C(=O)N1C answer_label="true (1)"
molecular_string=C/C=C/C[C@@H](C)[C@@H](O)[C@H]1C(=O)N[C@@H](CC)C(=O)N(C)CC(=O)N(C)[C@@H](CC(C)C)C(=O)N[C@@H](C(C)C)C(=O)N(C)[C@@H](CC(C)C)C(=O)N[C@@H](C)C(=O)N[C@H](CCCCNC(=O)C(C)(C)C)C(=O)N(C)[C@@H](CC(C)C)C(=O)N(C)[C@@H](CC(C)C)C(=O)N(C)[C@@H](C(C)C)C(=O)N1C answer_label="true (1)"
molecular_string=C/C=C/C[C@@H](C)[C@@H](O)[C@H]1C(=O)N[C@@H](CC)C(=O)N(C)CC(=O)N(C)[C@@H](CC(C)C)C(=O)N[C@@H](C(C)C)C(=O)N(C)[C@@H](CC(C)C)C(=O)N[C@@H](C)C(=O)N[C@H](CCCCN(CC)CC)C(=O)N(C)[C@@H](CC(C)C)C(=O)N(C)[C@@H](CC(C)C)C(=O)N(C)[C@@H](C(C)C)C(=O)N1C answer_label="false (0)"
molecular_string=C/C=C/C[C@@H](C)[C@@H](O)[C@H]1C(=O)N[C@@H](CC)C(=O)N(C)CC(=O)N(C)[C@@H](CC(C)C)C(=O)N[C@@H](C(C)C)C(=O)N(C)[C@@H](CC(C)C)C(=O)N[C@@H](C)C(=O)N[C@H](CNC(=O)OC(C)(C)C)C(=O)N(C)[C@@H](CC(C)C)C(=O)N(C)[C@@H](CC(C)C)C(=O)N(C)[C@@H](C(C)C)C(=O)N1C answer_label="false (0)"

----------
Test: Cytotoxicity against human HuH7 cells assessed as release of lactate dehydrogenase
Type: cell-based, Huh-7
Details: human, HuH7 cells
Listed below: IC90 values for each entry.
REPORTED ENDPOINT: IC90

molecular_string=C/C=C/C[C@@H](C)[C@@H](O)[C@H]1C(=O)N[C@@H](CC)C(=O)N(C)CC(=O)N(C)[C@@H](CC(C)C)C(=O)N[C@@H](C(C)C)C(=O)N(C)[C@@H](CC(C)C)C(=O)N[C@@H](C)C(=O)N[C@H](CCN(C)C)C(=O)N(C)[C@@H](CC(C)C)C(=O)N(C)[C@@H](CC(C)C)C(=O)N(C)[C@@H](C(C)C)C(=O)N1C reported_endpoint=IC90 obs_value="> 10 µM"
molecular_string=C/C=C/C[C@@H](C)[C@@H](O)[C@H]1C(=O)N[C@@H](CC)C(=O)N(C)CC(=O)N(C)[C@@H](CC(C)C)C(=O)N[C@@H](C(C)C)C(=O)N(C)[C@@H](CC(C)C)C(=O)N[C@@H](C)C(=O)N[C@H](CCCCN(CC)CC)C(=O)N(C)[C@@H](CC(C)C)C(=O)N(C)[C@@H](CC(C)C)C(=O)N(C)[C@@H](C(C)C)C(=O)N1C reported_endpoint=IC90 obs_value="7.9 µM"
molecular_string=C/C=C/C[C@@H](C)[C@@H](O)[C@H]1C(=O)N[C@@H](CC)C(=O)N(C)CC(=O)N(C)[C@@H](CC(C)C)C(=O)N[C@@H](C(C)C)C(=O)N(C)[C@@H](CC(C)C)C(=O)N[C@@H](C)C(=O)N[C@H](CN(C)C)C(=O)N(C)[C@@H](CC(C)C)C(=O)N(C)[C@@H](CC(C)C)C(=O)N(C)[C@@H](C(C)C)C(=O)N1C reported_endpoint=IC90 obs_value="> 10 µM"
molecular_string=C/C=C/C[C@@H](C)[C@@H](O)[C@H]1C(=O)N[C@@H](CC)C(=O)N(C)CC(=O)N(C)[C@@H](CC(C)C)C(=O)N[C@@H](C(C)C)C(=O)N(C)[C@@H](CC(C)C)C(=O)N[C@@H](C)C(=O)N[C@H](CCCCN)C(=O)N(C)[C@@H](CC(C)C)C(=O)N(C)[C@@H](CC(C)C)C(=O)N(C)[C@@H](C(C)C)C(=O)N1C reported_endpoint=IC90 obs_value="> 10 µM"

----------
Listed below: IC50 values for each entry.
Molecular target: UniProt P62937
Sequence (P62937 whole entry): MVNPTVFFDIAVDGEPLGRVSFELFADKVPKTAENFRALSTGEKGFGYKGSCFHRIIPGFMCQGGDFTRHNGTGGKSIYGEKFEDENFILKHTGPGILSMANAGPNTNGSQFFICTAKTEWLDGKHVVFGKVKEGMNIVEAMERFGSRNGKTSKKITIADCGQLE
REPORTED ENDPOINT: IC50 (nM)

molecular_string=C/C=C/C[C@@H](C)[C@@H](O)[C@H]1C(=O)N[C@@H](CC)C(=O)N(C)CC(=O)N(C)[C@@H](CC(C)C)C(=O)N[C@@H](C(C)C)C(=O)N(C)[C@@H](CC(C)C)C(=O)N[C@@H](C)C(=O)N[C@H](CCCCN)C(=O)N(C)[C@@H](CC(C)C)C(=O)N(C)[C@@H](CC(C)C)C(=O)N(C)[C@@H](C(C)C)C(=O)N1C obs_value=11.1
molecular_string=C/C=C/C[C@@H](C)[C@@H](O)[C@H]1C(=O)N[C@@H](CC)C(=O)N(C)CC(=O)N(C)[C@@H](CC(C)C)C(=O)N[C@@H](C(C)C)C(=O)N(C)[C@@H](CC(C)C)C(=O)N[C@@H](C)C(=O)N[C@H](CCN)C(=O)N(C)[C@@H](CC(C)C)C(=O)N(C)[C@@H](CC(C)C)C(=O)N(C)[C@@H](C(C)C)C(=O)N1C obs_value=218
molecular_string=C/C=C/C[C@@H](C)[C@@H](O)[C@H]1C(=O)N[C@@H](CC)C(=O)N(C)CC(=O)N(C)[C@@H](CC(C)C)C(=O)N[C@@H](C(C)C)C(=O)N(C)[C@@H](CC(C)C)C(=O)N[C@@H](C)C(=O)N[C@H](CC#N)C(=O)N(C)[C@@H](CC(C)C)C(=O)N(C)[C@@H](CC(C)C)C(=O)N(C)[C@@H](C(C)C)C(=O)N1C obs_value=9.12
molecular_string=C/C=C/C[C@@H](C)[C@@H](O)[C@H]1C(=O)N[C@@H](CC)C(=O)N(C)CC(=O)N(C)[C@@H](CC(C)C)C(=O)N[C@@H](C(C)C)C(=O)N(C)[C@@H](CC(C)C)C(=O)N[C@@H](C)C(=O)N[C@H](CCC#N)C(=O)N(C)[C@@H](CC(C)C)C(=O)N(C)[C@@H](CC(C)C)C(=O)N(C)[C@@H](C(C)C)C(=O)N1C obs_value=23
molecular_string=C/C=C/C[C@@H](C)[C@@H](O)[C@H]1C(=O)N[C@@H](CC)C(=O)N(C)CC(=O)N(C)[C@@H](CC(C)C)C(=O)N[C@@H](C(C)C)C(=O)N(C)[C@@H](CC(C)C)C(=O)N[C@@H](C)C(=O)N[C@H](CCCN(CC)CC)C(=O)N(C)[C@@H](CC(C)C)C(=O)N(C)[C@@H](CC(C)C)C(=O)N(C)[C@@H](C(C)C)C(=O)N1C obs_value=21.4
molecular_string=C/C=C/C[C@@H](C)[C@@H](O)[C@H]1C(=O)N[C@@H](CC)C(=O)N(C)CC(=O)N(C)[C@@H](CC(C)C)C(=O)N[C@@H](C(C)C)C(=O)N(C)[C@@H](CC(C)C)C(=O)N[C@@H](C)C(=O)N[C@H](CNC(=O)OC(C)(C)C)C(=O)N(C)[C@@H](CC(C)C)C(=O)N(C)[C@@H](CC(C)C)C(=O)N(C)[C@@H](C(C)C)C(=O)N1C obs_value=83.5
